Design: species or system mice
Condition Details: mouse, in vivo, sc
Source text: The pharmokinetic properties of various PEGylated and non-PEGylated mutated neublastin products in rat and mouse models were examined (see Table 8 for summary of results). The analysis of the PEGylated […] samples are complicated by the presence of adducts comprising 2, 3 and 4 PEGs per molecule, which each will display a different PK profile. In early PK studies, mice were used to facilitate screening through a variety of candidates and routes of administration. […]
Parameter Measured: Exposure in Mice After s.c. Administration

- 1 X 20 kDa PEG-NBN104 (CHO): CHO derived NBN104 dimer glycosylated at 95,95 with one 20 kDa PEG at amino acid 1 (conjugate) AAGARGCRLRSQLVPVRALGLGHRSDELVRFRFCSGSCRRARSPHDLSLASLLGAGALRPPPGSRPVSQPCCRPTRYEAVSFMDVNSTWRTVDRLSATACGCLG: ++
- 2 X 20 kDa PEG-NBN: E. coli derived NBN113 dimer with two 20 kDa PEGs at amino acids 1,1 (conjugate) AGTRSSRARATDARGCRLRSQLVPVSALGLGHSSDELIRFRFCSGSCRRARSPHDLSLASLLGAGALRSPPGSRPISQPCCRPTRYEAVSFMDVNSTWRTVDHLSATACGCLG: +
- 3 (,4) X 10 kDa PEG NBN106-N95K: mixed population of NBN106-N95K homodimers conjugated to three or four 10 kDa PEG moieties, average 3.3 PEG per dimer (conjugate) ARATDARGCRLRSQLVPVSALGLGHSSDELIRFRFCSGSCRRARSPHDLSLASLLGAGALRSPPGSRPISQPCCRPTRYEAVSFMDVKSTWRTVDHLSATACGCLG: ++

Origin of measurements: patent EP2246362B1
